experiment: Cytotoxicity against human HS5 cells assessed as cell death at 5 uM incubated for 72 hrs by PI staining based flow cytometry; conditions: hs5, 72 h
property-measured: Activity

[[record]]
compound_smiles = "CCCc1nc2ccccc2n1Cc1ccc(-c2ccccc2C(=O)OC)cc1"
experimental_value = "Non-Toxic"

[[record]]
compound_smiles = "CCCc1nc2c(OC)cccc2n1Cc1ccc(-c2ccccc2C#N)cc1"
experimental_value = "Non-Toxic"

[[record]]
compound_smiles = "CCCc1nc2c(Cl)cccc2n1Cc1ccc(-c2ccccc2C(=O)OC)cc1"
experimental_value = "Non-Toxic"

[[record]]
compound_smiles = "CCCc1nc2c(F)cccc2n1Cc1ccc(-c2ccccc2C#N)cc1"
experimental_value = "Non-Toxic"

[[record]]
compound_smiles = "CCCc1nc2ccccc2n1Cc1ccc(-c2ccccc2C#N)cc1"
experimental_value = "Non-Toxic"

[[record]]
compound_smiles = "CCCc1nc2c(F)cccc2n1Cc1ccc(-c2ccccc2C(=O)OC)cc1"
experimental_value = "Non-Toxic"

[[record]]
compound_smiles = "CCCc1nc2c(Br)cccc2n1Cc1ccc(-c2ccccc2C(=O)OC)cc1"
experimental_value = "Non-Toxic"

[[record]]
compound_smiles = "CCCc1nc2c(N)cccc2n1Cc1ccc(-c2ccccc2C(=O)OC)cc1"
experimental_value = "Non-Toxic"

[[record]]
compound_smiles = "CCCc1nc2c([N+](=O)[O-])cccc2n1Cc1ccc(-c2ccccc2C(=O)OC)cc1"
experimental_value = "Non-Toxic"

[[record]]
compound_smiles = "CCCc1nc2c([N+](=O)[O-])cccc2n1Cc1ccc(-c2ccccc2C#N)cc1"
experimental_value = "Non-Toxic"


---

test: Modulation of STAT5 expression in imatinib-resistant human K562 cells assessed as STAT5 level at 5 uM measured after 6 hrs in presence of imatinib by Jess Simple Western immunoassay (reference value: 100%); format: functional
Recorded measurements of Activity, one per entry
property-measured: Activity (%)

[[record]]
compound_smiles = "CCCc1nc2ccccc2n1Cc1ccc(-c2ccccc2C#N)cc1"
unit_name = "%"
experimental_value = 96

[[record]]
compound_smiles = "CCCc1nc2c(F)cccc2n1Cc1ccc(-c2ccccc2C(=O)OC)cc1"
unit_name = "%"
experimental_value = 103

[[record]]
compound_smiles = "CCCc1nc2c(F)cccc2n1Cc1ccc(-c2ccccc2C#N)cc1"
unit_name = "%"
experimental_value = 96

[[record]]
compound_smiles = "CCCc1nc2c(Cl)cccc2n1Cc1ccc(-c2ccccc2C#N)cc1"
unit_name = "%"
experimental_value = 109

[[record]]
compound_smiles = "CCCc1nc2c(Br)cccc2n1Cc1ccc(-c2ccccc2C(=O)OC)cc1"
unit_name = "%"
experimental_value = 116

[[record]]
compound_smiles = "CCCc1nc2c(Br)cccc2n1Cc1ccc(-c2ccccc2C#N)cc1"
unit_name = "%"
experimental_value = 103

[[record]]
compound_smiles = "CCCc1nc2ccccc2n1Cc1ccc(-c2ccccc2C(=O)OC)cc1"
unit_name = "%"
experimental_value = 112

[[record]]
compound_smiles = "CCCc1nc2c(Cl)cccc2n1Cc1ccc(-c2ccccc2C(=O)OC)cc1"
unit_name = "%"
experimental_value = 101


---

system: K562; assay: Induction of cell sensitization to imatinib in imatinib-resistant human K562 cells assessed as cell death at 5 uM incubated for 72 hrs in presence of 1 uM imatinib by PI staining based flow cytometry (reference value: 19%); type: functional
Label TRUE when Activity is strictly below 50%; otherwise label FALSE.

[[record]]
compound_smiles = "CCCc1nc2c(OC)cccc2n1Cc1ccc(-c2ccccc2C(=O)OC)cc1"
label = "FALSE"

[[record]]
compound_smiles = "CCCc1nc2c(C)cc(-c3nc4ccccc4n3C)cc2n1Cc1ccc(-c2ccccc2C(N)=O)cc1"
label = "FALSE"

[[record]]
compound_smiles = "CCCc1nc2c([N+](=O)[O-])cccc2n1Cc1ccc(-c2ccccc2C(=O)OC)cc1"
label = "FALSE"

[[record]]
compound_smiles = "CCCc1nc2c(Br)cccc2n1Cc1ccc(-c2ccccc2C#N)cc1"
label = "FALSE"

[[record]]
compound_smiles = "CCCc1nc2c(Cl)cccc2n1Cc1ccc(-c2ccccc2C(=O)OC)cc1"
label = "FALSE"

[[record]]
compound_smiles = "CCCc1nc2c(C)cccc2n1Cc1ccc(-c2ccccc2C(=O)OC)cc1"
label = "TRUE"

[[record]]
compound_smiles = "CCCc1nc2c(C)cc(-c3nc4ccccc4n3C)cc2n1Cc1ccc(-c2ccccc2C(=O)O)cc1"
label = "FALSE"

[[record]]
compound_smiles = "CCCc1nc2c(N)cccc2n1Cc1ccc(-c2ccccc2C(=O)OC)cc1"
label = "TRUE"

[[record]]
compound_smiles = "CCCc1nc2ccccc2n1Cc1ccc(-c2ccccc2C(=O)OC)cc1"
label = "FALSE"


---

Target: Signal transducer and activator of transcription 5A (Homo sapiens)
Sequence (whole entry): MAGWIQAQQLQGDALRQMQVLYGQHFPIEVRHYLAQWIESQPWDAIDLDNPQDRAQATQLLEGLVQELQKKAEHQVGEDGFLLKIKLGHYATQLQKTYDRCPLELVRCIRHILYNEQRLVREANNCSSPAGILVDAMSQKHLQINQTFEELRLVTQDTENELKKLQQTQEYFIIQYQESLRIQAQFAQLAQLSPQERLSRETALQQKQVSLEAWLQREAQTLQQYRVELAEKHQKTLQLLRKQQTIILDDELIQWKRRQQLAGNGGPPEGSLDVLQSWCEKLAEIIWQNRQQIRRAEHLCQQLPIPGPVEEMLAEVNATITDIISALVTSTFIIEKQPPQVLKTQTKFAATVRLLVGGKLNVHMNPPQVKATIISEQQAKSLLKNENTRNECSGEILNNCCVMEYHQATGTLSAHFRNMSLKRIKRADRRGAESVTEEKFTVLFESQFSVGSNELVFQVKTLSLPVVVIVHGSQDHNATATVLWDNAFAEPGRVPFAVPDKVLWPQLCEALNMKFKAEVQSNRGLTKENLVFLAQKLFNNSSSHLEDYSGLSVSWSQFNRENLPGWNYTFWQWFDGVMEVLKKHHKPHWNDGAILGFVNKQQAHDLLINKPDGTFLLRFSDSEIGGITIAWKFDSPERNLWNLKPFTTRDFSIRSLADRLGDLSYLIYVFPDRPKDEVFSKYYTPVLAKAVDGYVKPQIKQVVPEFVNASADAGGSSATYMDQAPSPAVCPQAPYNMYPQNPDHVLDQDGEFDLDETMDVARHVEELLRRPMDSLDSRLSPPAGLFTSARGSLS
Test: Inhibition of STAT5 phosphorylation at Y694/699 residue in imatinib-resistant human K562 cells assessed as phosphorylated STAT5 level at 5 uM incubated for 6 hrs in presence of imatinib by Jess Simple Western immunoassay (reference value: 100%)
Type: cell-based
Set-up: scale not given: the % may be the effect or the level left
Recorded measurements of Activity, one per entry
property-measured: Activity (%)

[[record]]
compound_smiles = "CCCc1nc2c(F)cccc2n1Cc1ccc(-c2ccccc2C(=O)OC)cc1"
property_measured = "Activity"
experimental_value = 42

[[record]]
compound_smiles = "CCCc1nc2c(Br)cccc2n1Cc1ccc(-c2ccccc2C(=O)OC)cc1"
property_measured = "Activity"
experimental_value = 27

[[record]]
compound_smiles = "CCCc1nc2c(Cl)cccc2n1Cc1ccc(-c2ccccc2C(=O)OC)cc1"
property_measured = "Activity"
experimental_value = 3

[[record]]
compound_smiles = "CCCc1nc2c(Cl)cccc2n1Cc1ccc(-c2ccccc2C#N)cc1"
property_measured = "Activity"
experimental_value = 12


---

biological target: Peroxisome proliferator-activated receptor gamma (Homo sapiens, UniProt P37231); assay: Agonist activity at Gal4-fused human PPARgamma transfected in African green monkey COS7 cells co-transfected with pGal5-TK-pGL3 and pRenilla-CMV assessed as receptor transactivation at 10 uM incubated for 39 hrs by dual luciferase reporter gene assay relative to piaglitazone; assay type: cell-based; settings: COS-7, human, read-out: max activation
Sequence (P37231 whole entry, the tested form may be a part): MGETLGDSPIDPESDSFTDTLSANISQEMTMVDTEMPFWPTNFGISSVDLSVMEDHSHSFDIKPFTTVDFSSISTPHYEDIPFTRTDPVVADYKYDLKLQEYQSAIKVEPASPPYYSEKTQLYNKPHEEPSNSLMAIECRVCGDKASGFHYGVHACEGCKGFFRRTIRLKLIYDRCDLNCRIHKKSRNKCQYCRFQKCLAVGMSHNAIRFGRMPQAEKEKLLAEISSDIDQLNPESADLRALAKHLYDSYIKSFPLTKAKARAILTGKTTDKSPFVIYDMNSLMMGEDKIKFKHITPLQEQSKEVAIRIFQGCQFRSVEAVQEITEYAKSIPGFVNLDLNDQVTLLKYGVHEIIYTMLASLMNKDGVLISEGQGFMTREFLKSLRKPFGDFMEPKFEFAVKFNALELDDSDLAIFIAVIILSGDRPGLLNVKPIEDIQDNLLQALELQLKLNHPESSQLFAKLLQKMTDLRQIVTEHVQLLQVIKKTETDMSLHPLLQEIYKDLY
property-measured: Emax at 10 µM (%)

[[record]]
compound_smiles = "CCCc1nc2ccccc2n1Cc1ccc(-c2ccccc2C#N)cc1"
property_measured = "Emax at 10 µM"
experimental_value = 64.5

[[record]]
compound_smiles = "CCCc1nc2c(OC)cccc2n1Cc1ccc(-c2ccccc2C#N)cc1"
property_measured = "Emax at 10 µM"
experimental_value = 45.9

[[record]]
compound_smiles = "CCCc1nc2ccccc2n1Cc1ccc(-c2ccccc2C(=O)OC)cc1"
property_measured = "Emax at 10 µM"
experimental_value = 21.6

[[record]]
compound_smiles = "CCCc1nc2c(C)cccc2n1Cc1ccc(-c2ccccc2C(=O)OC)cc1"
property_measured = "Emax at 10 µM"
experimental_value = 13.8


---

test system: K562; assay: Induction of cell sensitization to imatinib in imatinib-resistant human K562 cells assessed as cell death at 5 uM incubated for 72 hrs in presence of 1 uM imatinib by PI staining based flow cytometry (reference value: 19%); type: functional
property-measured: Activity (%)

[[record]]
compound_smiles = "CCCc1nc2ccccc2n1Cc1ccc(-c2ccccc2C#N)cc1"
unit_name = "%"
experimental_value = 50

[[record]]
compound_smiles = "CCCc1nc2c([N+](=O)[O-])cccc2n1Cc1ccc(-c2ccccc2C#N)cc1"
unit_name = "%"
experimental_value = 50

[[record]]
compound_smiles = "CCCc1nc2c(Cl)cccc2n1Cc1ccc(-c2ccccc2C#N)cc1"
unit_name = "%"
experimental_value = 50

